Reference source for all entries: patent US4357344A

# Tested on: flies (family Muscidae)
# protocolText: Chemosterilancy tests (egg hatch and pupal development; Examples 6-9)
# Type: in vivo
# assayConditions: 0.01% in food
Respond with class 1 for Egg hatch values of 20% and above, class 0 for values below.

Past entries and their recorded results:
compound	testSystem	assignedClass
CC(c1ccccc1)c1cc(C(C)(C)C)cc(C(C)(C)C)c1O (stereo not shown)	flies (family Muscidae)	class 1
COc1ccc(Cc2cc(C(C)(C)C)cc(C(C)(C)C)c2O)cc1	flies (family Muscidae)	class 1
COc1ccc(C(C)c2cc3c(cc2OC)OCO3)cc1 (stereo not shown)	flies (family Muscidae)	class 0
CCCOc1cc2c(cc1C(C)c1ccc(OC)cc1)OCO2 (stereo not shown)	flies (family Muscidae)	class 1
C=CCc1cc2c(cc1Cc1ccc(OC)cc1)OCO2	flies (family Muscidae)	class 0

# input Egg hatch >= 20% for COc1ccc(Cc2cc3c(cc2OC)OCO3)cc1 ?
# output class 1

# input Egg hatch >= 20% for CCOc1cc2c(cc1Cc1ccc(OC)cc1)OCO2 ?
# output class 0
